test system: HOP-18; test: NCI tumour cell line growth inhibition, 48 h
Calls of active or inactive are those of the source. Cut-off read from the data, not from the text of the source: active = GI50 up to about 1.1 µM and inactive = higher.
Measured GI50 values are reported for all entries that follow.

{"COMPOUND": "COc1ccc(/C=C2/CSC/C(=C/c3ccc(OC)c(OC)c3)C2=O)cc1OC", "TESTED_TARGET": "HOP-18", "GI50": "6.65 µM (inactive)"}
{"COMPOUND": "O=C1CCC2(c3ccc(F)cc3)Nc3cc(Cl)ccc3N12 (stereo not given)", "TESTED_TARGET": "HOP-18", "GI50": "48.3 µM (inactive)"}
{"COMPOUND": "CO[C@H]1CC[C@]2(C)C3=CC[C@@]4(C)C(CC[C@@H]4C(C)CC[C@@H](C)C(C)C)C(=CCC2C1)O3 (stereo not given in full)", "TESTED_TARGET": "HOP-18", "GI50": "> 25 µM (inactive)"}
{"COMPOUND": "CCCCCC(/C=C/[C@@H]1[C@H]2CC(=O)O[C@H]2C[C@H]1N1CCOCC1)OC1CCCO1 (stereo not given in full)", "TESTED_TARGET": "HOP-18", "GI50": "> 100 µM (inactive)"}
{"COMPOUND": "O=C(CC1(O)C(=O)Nc2c(Cl)ccc(Cl)c21)c1ccc(Cl)cc1Cl (stereo not given)", "TESTED_TARGET": "HOP-18", "GI50": "35.1 µM (inactive)"}
